System: HL-60
protocol summary: NCI tumour cell line growth inhibition, 48 h
Calls of active or inactive are those of the source. No stated cut-off is given here; in the data, active = GI50 up to about 1.1 µM and inactive = higher. *1 amine or outer side, *2 acyl side, *3 side chain or, on linkers, in order; H or OH if unused. Where a SMILES comes first, the peptide text is derived from it. The star is where a group is joined. γGlu = O=C(O)[CH](CCC(=O)[*:2])N[*:1]; NHOH = ON*
Labels: yes (1) for active, no (0) for inactive

compound: CCCCCCCCCCSC(=O)NC
class name: no (0)

compound: Nc1nc(O)c([N+](=O)[O-])c(NCCOCP(=O)(O)O)n1
class name: no (0)

compound: CCOP1(=O)CC(C)=C(Cl)C(OC)C1 (stereo unspecified)
class name: no (0)

compound: NC(CCC(=O)NC(CCC(=O)NO)C(=O)NCC(=O)O)C(=O)O (stereo unspecified) (γGlu-Glu(NHOH)-Gly-OH; configuration not given here)
class name: no (0)

compound: O=C(Nc1nn(C(=O)c2ccc(Cl)cc2)c(=O)s1)c1ccc(Cl)cc1
class name: no (0)

compound: CC(C)=C1C(=O)c2c(Cl)sc(Cl)c2C1=O
class name: no (0)

compound: Nc1nc(SC/C=C/c2ccccc2)c2[nH]cnc2n1
class name: no (0)

compound: COC(=O)C1CCC(=O)N1C(c1ccc(OC)cc1)c1cc(OC)c(OC)c(OC)c1 (stereo unspecified)
class name: yes (1)

compound: CC1(C)CC2(CC(C)(C)N1O)NC(=O)OC2=O
class name: no (0)

compound: O[C@]12c3ccccc3C1CCCC2N1CCOCC1 (stereo partly specified)
class name: no (0)

compound: NNC(=O)CNc1cccc(Br)c1
class name: no (0)

compound: COCC(=O)[C@]1(O)Cc2c(O)c3c(c(O)c2[C@@H](OC2CC(N)C(O)C(C)O2)C1)C(=O)c1c(OC)cccc1C3=O (stereo partly specified)
class name: yes (1)

compound: O=C(/C=C/c1ccccc1)C[C@@H](O)C[C@@H]1CC=CC(=O)O1
class name: no (0)

compound: CC(=O)N(CCc1ccccc1)C(C#N)c1ccccc1 (stereo unspecified)
class name: no (0)

compound: C[C@]12CC[C@@H]3c4cc(Br)c(O)c(Br)c4CC[C@H]3[C@@H]1CC(Br)C2=O (stereo partly specified)
class name: no (0)

compound: OCC1OC(NC(=S)NCSCCC(F)(F)C(F)(F)C(F)(F)C(F)(F)C(F)(F)C(F)(F)F)C(O)C(O)C1O (stereo unspecified)
class name: no (0)

compound: Cn1c(=O)c2nc(SCc3ccccn3)[nH]c2n(C)c1=S
class name: no (0)

compound: O=NN(Cc1ccc(Cl)cc1)C(C(=O)O)c1ccccc1 (stereo unspecified)
class name: no (0)

compound: COC(=O)[C@]1(C)CCC[C@@]2(C)[C@@H]3C[C@@H]4[C@H]5C[C@@]3(CC[C@@H]21)C[C@@]45C
class name: no (0)

compound: C=C(C)COc1cc(/N=C(/S)OC(C)C)ccc1Cl
class name: no (0)

compound: CC(C)NC(=O)OCC[S+]([O-])c1c(Cl)c(Cl)nn1C (stereo unspecified)
class name: no (0)

====

Test system: SF-268
protocol summary: NCI tumour cell line growth inhibition, 48 h
Calls of active or inactive are those of the source. No stated cut-off is given here; in the data, active = GI50 up to about 1.1 µM and inactive = higher.
Labels: T for active, F for inactive

compound: CCOc1cccc(-c2cc(O)c3cc4c(cc3n2)OCO4)c1
class name: T
--
compound: O=C1OC(=O)C2=C1C(c1cccs1)C=C(c1cccnc1)N2c1ccncc1 (stereo unspecified)
class name: F
--
compound: COCN1C(=O)[C@@H]2CCCN2C(=O)c2ccc(N)cc21
class name: F
--
compound: O=C(/C=N/O)Nc1cccc(Cl)c1I
class name: F
--
compound: Cc1nccn1S(=O)(=O)c1ccc(Br)cc1Br
class name: F
--
compound: On1c(-c2ccccc2)nc2ccccc2c1=S
class name: F
--
compound: CC(C)NCC(O)c1cc(OCc2ccccc2)c(OCc2ccccc2)cc1NC(=O)CCC(=O)O (stereo unspecified)
class name: F
--
compound: COCC(=O)[C@]1(O)Cc2c(O)c3c(c(O)c2[C@@H](OC2CC(N)C(O)C(C)O2)C1)C(=O)c1c(OC)cccc1C3=O (stereo partly specified)
class name: T
--
compound: O=C1C=C(Br)C(=O)C12CCc1ccccc12 (stereo unspecified)
class name: F
--
compound: COC(=O)C1=C(O)C(C(=O)OC)[C@@]2(O)[C@@H](C(=O)OC)[C@H](C)[C@@H](C)[C@@H]1[C@@H]2C(=O)OC (stereo partly specified)
class name: F
--
compound: CN(C)CCNc1c([N+](=O)[O-])sc2ccc(Cl)cc12
class name: F

====

Test system: KM12
protocol summary: NCI tumour cell line growth inhibition, 48 h
Active and inactive are the calls of the source. Cut-off read from the data, not from the text of the source: active = GI50 up to about 1.1 µM and inactive = higher.
Labels: true = active, false = inactive

compound: Clc1nncc2sc(-c3ccccc3)nc12
class name: false
//
compound: NS(=O)(=O)c1ccc(/N=N/c2c(O)c(C(=O)O)cc3ccccc23)cc1
class name: false
//
compound: C=CC[C@@]1([C@H](C=C)COCc2ccc(OC)cc2)CC[C@]2(C)OC(C)(C)[C@@H](c3ccccc3)N2C1=S
class name: false
//
compound: C=C(C)C1Cc2c(cc(OC)c3c(=O)c4ccccc4n(C)c23)O1 (stereo not given)
class name: false
//
compound: CC(=O)[C@]1(O)Cc2c(O)c3c(c(O)c2C(OC2OC(C)C(O)C(O)C2F)C1)C(=O)c1ccccc1C3=O (stereo not given in full)
class name: true
//
compound: O=C(CN1CCN(Cc2ccccc2)CC1)N1CCCn2c1nc1ccccc1c2=O
class name: false
//
compound: Cc1cc(C)nc(NS(=O)(=O)c2ccc(NC(=O)c3cccc4c(NNc5ccc(S(=O)(=O)N=C(N)N)cc5)c5ccccc5nc34)cc2)n1
class name: false
//
compound: c1ccc(-c2ccnc3c2ccc2c(-c4ccccc4)ccnc23)cc1
class name: true
//
compound: CC(C)C(Sc1nc(-c2ccccc2)c(-c2ccccc2)[nH]1)C(=O)N/N=C/c1ccc(Cl)cc1 (stereo not given)
class name: false
//
compound: COc1nc(C#CC(C)(C)C)nc(OC)n1
class name: false

====

Here, each record is paired with measured GI50 data.
System: SK-MEL-2
protocol summary: NCI tumour cell line growth inhibition, 48 h
Activity calls are given as the source filed them. No stated cut-off is given here; in the data, active = GI50 up to about 1.1 µM and inactive = higher.
reported endpoint: GI50

compound: CC(=O)c1cc2c(s1)C(=O)c1scc(C(C)=O)c1C2=O
assayed target: SK-MEL-2
reported endpoint: GI50
value measured: 0.586 µM (active)
--
compound: C[n+]1cccc(/C=C/c2ccc3cccc(O)c3n2)c1
assayed target: SK-MEL-2
reported endpoint: GI50
value measured: > 100 µM (inactive)
--
compound: COc1cc(O)c2c(=O)c(O)c(-c3ccc(O)c(OC)c3)oc2c1
assayed target: SK-MEL-2
reported endpoint: GI50
value measured: > 100 µM (inactive)
--
compound: COC(=O)c1c(C(=O)OC)c2ccc(-c3ccc(Cl)cc3)nn2c1C(=O)c1ccc([N+](=O)[O-])cc1
assayed target: SK-MEL-2
reported endpoint: GI50
value measured: 34.8 µM (inactive)
--
compound: Cc1nc(C)c(N2CCN(S(=O)(=O)N(Cc3ccccc3)Cc3ccccc3)CC2)c(O)n1
assayed target: SK-MEL-2
reported endpoint: GI50
value measured: 26.7 µM (inactive)
--
compound: Cc1cc(S(=O)(=O)[N-]C(=C(C#N)C#N)[n+]2ccc(N(C)C)cc2)c(SCC(=O)O)cc1Cl
assayed target: SK-MEL-2
reported endpoint: GI50
value measured: > 100 µM (inactive)
--
compound: O=C(CCC(=O)Nc1ccc(Cl)c(Cl)c1)CC(=O)c1ccc(Cl)cc1
assayed target: SK-MEL-2
reported endpoint: GI50
value measured: > 100 µM (inactive)
--
compound: COc1ccc(C2C(Cl)C(=O)N2NC(=O)Cc2ccccc2)cc1OC (stereo not given)
assayed target: SK-MEL-2
reported endpoint: GI50
value measured: > 100 µM (inactive)
--
compound: O=C(O)C12CC3CC(C1)C2C=C3P(=O)(O)O (stereo not given)
assayed target: SK-MEL-2
reported endpoint: GI50
value measured: > 100 µM (inactive)
--
compound: C#C/C=C/CC1OC(C(Br)CC)CC(Br)C2CC1O2 (stereo not given)
assayed target: SK-MEL-2
reported endpoint: GI50
value measured: > 100 µM (inactive)

====

System: HT-29
protocol summary: NCI tumour cell line growth inhibition, 48 h
Active and inactive are the calls of the source. Rule as the data show it: active = GI50 up to about 1.1 µM and inactive = higher.
Here, each record is paired with measured GI50 data.
reported endpoint: GI50

molecule: Clc1nncc2sc(-c3ccccc3)nc12
reported endpoint: GI50
value measured: 20.3 µM (inactive)
//
molecule: COc1cccc(/C=N/n2c(Cc3ccc(Cl)cc3)n[nH]c2=O)c1
reported endpoint: GI50
value measured: 12.4 µM (inactive)
//
molecule: Cc1cc(C)nc(NS(=O)(=O)c2ccc(NC(=O)c3cccc4c(NNc5ccc(S(=O)(=O)N=C(N)N)cc5)c5ccccc5nc34)cc2)n1
reported endpoint: GI50
value measured: > 50 µM (inactive)
//
molecule: O=C(CC(=O)Nc1cccc(C(=O)O)c1)Nc1cccc(C(=O)O)c1
reported endpoint: GI50
value measured: > 100 µM (inactive)
//
molecule: COc1cc(C2c3cc4c(cc3OC(N3CCCCC3)C2C)OCO4)cc(OC)c1O (stereo not given)
reported endpoint: GI50
value measured: 8.75 µM (inactive)
//
molecule: CC1(C)O[C@H]2OC(CO[Si](C)(C)C(C)(C)C)C(N=[N+]=[N-])[C@H]2O1 (stereo not given in full)
reported endpoint: GI50
value measured: 12.5 µM (inactive)
//
molecule: CCCCCCCCCCCCC(=O)CCCCC(=O)O
reported endpoint: GI50
value measured: 15.8 µM (inactive)
//
molecule: CNc1ccc2nc(-c3ccc(OC(=O)N(C)C)cc3)cn2c1
reported endpoint: GI50
value measured: 17.7 µM (inactive)
//
molecule: O=C1CCCCC1S(=O)(=O)c1ccccc1 (stereo not given)
reported endpoint: GI50
value measured: > 100 µM (inactive)
//
molecule: CC(C)C(Sc1nc(-c2ccccc2)c(-c2ccccc2)[nH]1)C(=O)N/N=C/c1ccc(Cl)cc1 (stereo not given)
reported endpoint: GI50
value measured: 14.9 µM (inactive)
